- measured-on: T1, RlpA-Δ32 (P. aeruginosa PAO1, UniProt Q9X6V6 32-342)
- T1 construct: source: E. coli BL21-star (DE3), purified (Ni-NTA)
- T1 sequence: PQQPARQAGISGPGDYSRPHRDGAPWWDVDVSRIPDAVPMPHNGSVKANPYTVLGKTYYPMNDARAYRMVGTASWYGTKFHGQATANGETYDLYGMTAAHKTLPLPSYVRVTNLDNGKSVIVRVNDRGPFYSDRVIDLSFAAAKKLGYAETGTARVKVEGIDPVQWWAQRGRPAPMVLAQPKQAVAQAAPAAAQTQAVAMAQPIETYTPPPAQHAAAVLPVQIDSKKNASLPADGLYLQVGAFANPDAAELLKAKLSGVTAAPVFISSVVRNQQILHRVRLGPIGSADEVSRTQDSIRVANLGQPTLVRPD
- assay-name: SPR
- reported-conditions: both partners purified
measurement-type: kon (M⁻¹ s⁻¹)
// return numeric value only (unit: M⁻¹ s⁻¹, not printed)

Below: 2 binders and their reported kon.
# binder, kon (M⁻¹ s⁻¹)
records = [
    ("PBP7 (enzyme, P. aeruginosa PAO1, UniProt P72161 24-310, looked up) SPPPKAGLPLQQELASGSALVTDQNTGKVLYSRNPDLVVPIASITKLMTAMVVLDSKLPLDEVLPIAISETSEMRGVFSRVRVGSQISRRDMLLLALMSSENRAAASLAQNYPGGKNAFVKAMNAKAHALGMKNTRYVEPTGLSLHNVSTARDLTRLLVASRQYPLLSQWSTTPEKTVAFRHPNYTLGFRNTNHLINNKTWNIQLTKTGFTNEAGHCLVMRTTINRSPVNLVVLDAFGKYTHFADATRLRRWLETGQVTAIPAAAKAYRLQRDRERGLGQPVAQAVR", 5900),
    ("PA4063 (natural protein, source: E. coli, purified (Ni-NTA or Strep-Tactin)) HDDHDHDHAHGSLGKHEHGVAQLNVALDGKTLELELDSPAMNLVGFEHAASTDADKAAVAKARAQLEKPLELFALPVTAGCSVASQELRSPLFGDKAPAHAHKEKAGHEHEHEHEHEHGHADIHAHYQLSCEKPELLKLLTLAEFFKRFPATQKIQVQLIGPDGQKGADLAPASAELKL", 1800),
]

Below: the item to evaluate.
Req: Record request: kon value, item PilO (natural protein, source: E. coli, purified (Ni-NTA or Strep-Tactin)) YNFHLSDMQAQLEQQAAEEETLKQQFSTKAFQAANLEAYKAQMKEMEESFGALLRQLPSDTEVPGLLEDITRTGLGSGLEFEEIKLLPEVAQQFYIELPIQISVVGGYHDLATFVSGVSSLPRIVTLHDFEIKPVAPGSTSKLRMSILAKTYRYNDKGLKK
Resp: 880
